- Tested on: groupe de huit goûteurs expérimentés
- assayOverview: Sweetening power judged by a panel of eight experienced tasters against a sucrose reference solution
- Type: in vivo
- runParameters: Table II; weight basis, relative to a 2 % sucrose solution
endpointName: Pouvoir édulcorant
Kindly provide the number alone.

The following compounds have reported results that may help.
[
  {
    "compound": "O=C(O)CNC(=Nc1cccc2ccccc12)Nc1cc(Cl)cc(Cl)c1",
    "Pouvoir édulcorant": 30000
  },
  {
    "compound": "C[C@@H](NC(=Nc1ccc(C#N)cc1)NCC(=O)O)c1ccccc1",
    "Pouvoir édulcorant": 9000
  },
  {
    "compound": "O=C(O)CNC(=Nc1ccccc1)Nc1ccccc1",
    "Pouvoir édulcorant": 500
  },
  {
    "compound": "C[C@H](NC(=Nc1ccc([N+](=O)[O-])cc1)NCC(=O)O)c1ccccc1",
    "Pouvoir édulcorant": 7000
  },
  {
    "compound": "CC1(C)SC(C)(C)C1NC(=Nc1ccc(C#N)cc1)NCC(=O)O",
    "Pouvoir édulcorant": 700
  }
]

Q: Bench note: what Pouvoir édulcorant did "N#Cc1ccc(N=C(NCC(=O)O)NC2CCCCCCCC2)cc1" show?
Result: 200000

Q: Now the same for "N#Cc1ccc(NC(=NC2CCCCCCC2)NCC(=O)O)cc1"
Result: 170000

Q: Next compound: N#Cc1ccc(N=C(NCC(=O)O)NC2CCc3ccccc32)cc1 (centres unmarked)
Result: 5000

Q: For "O=C(O)CNC(=Nc1cc(Cl)cc(Cl)c1)NN1CCOCC1" then?
Result: 500

Q: Same again, this time with "CCCCCCN=C(NCC(=O)O)Nc1ccc(C#N)cc1"
Result: 6000

Q: Lookup "C[C@H](NC(=Nc1ccccc1)NCC(=O)O)c1ccccc1"
Result: 5000

Q: Now the same for "O=C(O)CNC(=Nc1cc(Cl)cc(Cl)c1)NCC1CCCCC1"
Result: 35000

Q: Item: "N#Cc1ccc(N=C(NCC(=O)O)Nc2ccccc2)cc1"
Result: 4000
